B1: ZBTB22 (parent)
chain: RPFDCPVCNKKFKMKHHLTEHMKT

variants of: B1; assay: protein stability index of a GFP-peptide fusion (GPS, HEK-293T) (PSI 1-6); higher = more stable; conditions: c terminus: a fixed tail appended;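 note: lentivirally expressed fusions sorted by FACS into six bins by GFP to DsRed ratio, PSI derived from sequencing read proportions per bin multiplied by bin number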
Assign protein stability index to each entry below.
One number for each entry.

Record excerpt, results attached:
{"biopolymer_sequence": "RPFDCPVCNKKFKMKHHLGEHMKT [T19G]", "observed_value": 3.17}
{"biopolymer_sequence": "RPFDCPVCNKKFKMKHHLTEHMGT [K23G]", "observed_value": 2.99}
{"biopolymer_sequence": "RPFDCPVKNKKFKMKHHLTEHMKT [C8K]", "observed_value": 3.34}
{"biopolymer_sequence": "RPFDCPVCYKKFKMKHHLTEHMKT [N9Y]", "observed_value": 2.07}
{"biopolymer_sequence": "RPQDCPVCNKKFKMKHHLTEHMKT [F3Q]", "observed_value": 2.86}

Working through the 4 variants below one at a time, give protein stability index for each.
1. LPFDCPVCNKKFKMKHHLTEHMKT [R1L]
2. RPFDCPVCNKKFKMKHHLTAHMKT [E20A]
3. RPFDGPVCNKKFKMKHHLTEHMKT [C5G]
4. RPFPCPVCNKKFKMKHHLTEHMKT [D4P]

**A:**
1: 2.35; 2: 2.78; 3: 3.3; 4: 1.71
